Test system: Aorta
ASSAY_PROTOCOL: Vasodilatory activity in Wistar rat thoracic aorta assessed as relaxation of L-phenylephrine-induced contraction after 120 mins
Assay type: functional, tissue-based
CONDITION: 2 h
Provide the reported pEC50 of each item.
Give bare numbers, as −log10 of the molar value.

The examples below pair each entry with its known result.
INSERT INTO results (compound, number) VALUES
  ('CCCCNC(=O)NS(=O)(=O)c1ccc(OCc2no[n+]([O-])c2C(N)=O)cc1', 6.13),
  ('CCCCNC(=O)NS(=O)(=O)c1ccc(OCc2no[n+]([O-])c2-c2ccccc2)cc1', 5.62),
  ('CCCCNC(=O)NS(=O)(=O)c1ccc(Oc2no[n+]([O-])c2S(=O)(=O)c2ccccc2)cc1', 8.62),
  ('CCCCNC(=O)NS(=O)(=O)c1ccc(OCC(CO[N+](=O)[O-])O[N+](=O)[O-])cc1 (stereo not given)', 6.05);

Query :: Which pEC50 is reported for this compound? `CCCCNC(=O)NS(=O)(=O)c1ccc(OCCCO[N+](=O)[O-])cc1`
Result :: 5.80
